Measured values drawn from ChEMBL document CHEMBL1150757 for this set.

Assay: Displacement of [3H]colchicine from tubulin at inhibitor and colchicine ratio 100:1 after 10 mins relative to control
Details: values are per cent of control
Mark True only for residual binding, % of control values smaller than 40%; exact matches and larger values are False.

Please review the entries below; each comes with its answer.
Structure Smiles String	Label Value
COc1cc(CCc2ccc(OC)c(O)c2)cc(OC)c1	True
COc1ccc(CCc2cc(OC)c(OC)c(OC)c2)cc1OC	True
COc1cc(CCc2ccc(OC)c(OC)c2)cc(OC)c1	True
COc1cc(CCc2ccc(O)c(O)c2)cc(OC)c1	True
COc1cc(CCc2ccc(O)c(O)c2)cc(OC)c1OC	False

Let us examine a further case.
Is it true that residual binding, % of control reported for COc1cc(CCc2ccc(O)cc2)cc(OC)c1OC is less than 40%?
False

###

Would you kindly list residual binding, % of control for each of these compounds?
Assay: Displacement of [3H]colchicine from tubulin at inhibitor and colchicine ratio 10:1 after 10 mins relative to control
Parameters: concentration or dose not given beside the values
Conditions: values are per cent of control
Give bare numbers, in %.

Compound	residual binding, % of control [%]
COc1ccc(CCc2cc(OC)c(OC)c(OC)c2)cc1OC	63
COc1cc(CCc2ccc(OC)c(OC)c2)cc(OC)c1	80
COc1cc(CCc2ccc(O)c(O)c2)cc(OC)c1OC	81
COc1cc(CCc2ccc(OC)c(O)c2)cc(OC)c1	8
COc1cc([C@@H]2c3cc4c(cc3[C@H](O)[C@H]3COC(=O)[C@H]23)OCO4)cc(OC)c1OC [PODOFILOX]	0

Provide reported residual binding, % of control for each item, in the same order as listed.
1. COc1ccc(/C=C\c2cc(OC)c(OC)c(OC)c2)c(O)c1O [COMBRETASTATIN A-1]
2. COc1ccc(CCc2cc(OC)c(OC)c(OC)c2)c(O)c1O
3. COc1cc(CCc2ccc(O)cc2)cc(OC)c1OC
4. COc1cc(CCc2ccc(O)c(O)c2)cc(OC)c1

0
0
77
31

###

Test: Displacement of [3H]colchicine from tubulin at inhibitor and colchicine ratio 1:1 after 10 mins relative to control
Set-up: concentration or dose not given beside the values
Conditions: values are per cent of control
Measurement Type: residual binding, % of control (%)
Answers are plain numbers, in %.

Structure Smiles String	Reported
COc1cc(CCc2ccc(OC)c(OC)c2)cc(OC)c1	90
COc1cc(CCc2ccc(OC)c(O)c2)cc(OC)c1	38
COc1ccc(/C=C\c2cc(OC)c(OC)c(OC)c2)c(O)c1O	3
COc1ccc(CCc2cc(OC)c(OC)c(OC)c2)c(O)c1O	13
COc1cc([C@@H]2c3cc4c(cc3[C@H](O)[C@H]3COC(=O)[C@H]23)OCO4)cc(OC)c1OC	11

Provide reported residual binding, % of control for each item, in the same order as listed.
1. COc1ccc(CCc2cc(OC)c(OC)c(OC)c2)cc1OC
2. COc1cc(CCc2ccc(O)c(O)c2)cc(OC)c1OC
3. COc1cc(CCc2ccc(O)c(O)c2)cc(OC)c1

[88, 92, 75]

Any idea what its residual binding, % of control is? The compound is COc1cc(CCc2ccc(O)cc2)cc(OC)c1OC
89

###

Tested on: L1210
Experiment: Cytotoxicity against mouse L1210 cells after 24 hrs
Assay type: functional, cell-based
Conditions: L1210, 24 h
Measurement Type: pIC50
One number for each entry, as −log10 of the molar value.

Guide cases for pIC50, answers given:
Structure Smiles String	Reported
COc1cc(CCc2ccc(OC)c(O)c2)cc(OC)c1	6.00
COc1ccc(CCc2cc(OC)c(OC)c(OC)c2)c(O)c1O	5.70
COc1ccc(/C=C\c2cc(OC)c(OC)c(OC)c2)c(O)c1O	6.22
COc1cc(CCc2ccc(O)c(O)c2)cc(OC)c1OC	5.52
COc1ccc(CCc2cc(OC)c(OC)c(OC)c2)cc1OC	4.70
COc1cc(CCc2ccc(O)c(O)c2)cc(OC)c1	6.00

Provide reported pIC50 for each item, in the same order as listed.
1. COc1cc(CCc2ccc(O)cc2)cc(OC)c1OC
2. COc1cc(CCc2ccc(OC)c(OC)c2)cc(OC)c1

[4.30, 4.52]
